B1: SMOC2 (parent)
chain: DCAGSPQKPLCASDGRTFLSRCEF

variants of: B1; experiment: protein stability index of a GFP-peptide fusion (GPS, HEK-293T) (PSI 1-6); higher = more stable; conditions: c terminus: a fixed tail appended;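 note: lentivirally expressed fusions sorted by FACS into six bins by GFP to DsRed ratio, PSI derived from sequencing read proportions per bin multiplied by bin number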
// FALSE strictly below 3 in protein stability index; TRUE otherwise

Here's what some known entries look like.
INSERT INTO results (variant_descriptor, qualitative_label) VALUES
  ('R16E', 'TRUE'),
  ('A12H', 'FALSE'),
  ('S13P', 'FALSE'),
  ('S5M', 'FALSE'),
  ('G15Q', 'FALSE'),
  ('P6T', 'FALSE'),
  ('L19R', 'TRUE'),
  ('D14W', 'FALSE');

Could you now look at the following variant, please?
protein stability index >= 3 for "A12P" ?
TRUE
